Reported polymerase ribozyme fitness (log ratio) by item:
B1: TPR t1 (parent)
chain: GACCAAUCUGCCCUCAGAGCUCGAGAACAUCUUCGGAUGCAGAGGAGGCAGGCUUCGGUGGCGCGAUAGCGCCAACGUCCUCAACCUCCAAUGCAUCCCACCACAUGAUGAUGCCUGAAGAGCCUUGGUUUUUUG

Variants of: B1
Test: polymerase ribozyme fitness, log enrichment relative to wild type (log ratio); higher = more active; in vitro selection for triplet polymerase activity
Quantity name: polymerase ribozyme fitness (log ratio)

U9A C56U; 0.248
G63C U87A U130C G135U; -1.49
U21G A37G A41U G113U; -2.41
U9A U55G C56G; -0.896
C49U C64A U81A G93U C114G C123U; -6.8
U9G C20G G44C C72U C114G; -6.99
A6U C88A; -0.42
U7A A37G G52A C56G G120U; -0.68
A16G A41C A50U U81A U106A; -2.3
C40A U78G C88G; -4.1
C20U G60A; -1.03
G44U A95G C99U; -4.84
C8G C20U A84U G122U; -0.907
C13G C40U G47C C62U U78A; -3.84
C53U C114A; -1.2
A18G G58A C79G A118G; -7.2
G52A G71C; -3.42
U9C G47U C49U U129A; -3.07
C11G G120C G135C; 2.47
C4G C72U; -1.37
C3U U92G G117U A119U; -5.83
G120U G127U; 1.64
C28A G110C A119U; -1.42
A43U G93C G117A; -4.2
G48C C56A C72A U78A; -1.06
C15U A37G G71A C80U A118U U133A; -4.3
G47C C70U; -2.2
A5G C88A A91C C114G A121C; -0.389
A41U C99U C124U; -5.19
C94U G110U; -2.05
